Biological target: Cytochrome P450 2C9 (Homo sapiens, UniProt P11712)
Sequence (P11712 whole entry): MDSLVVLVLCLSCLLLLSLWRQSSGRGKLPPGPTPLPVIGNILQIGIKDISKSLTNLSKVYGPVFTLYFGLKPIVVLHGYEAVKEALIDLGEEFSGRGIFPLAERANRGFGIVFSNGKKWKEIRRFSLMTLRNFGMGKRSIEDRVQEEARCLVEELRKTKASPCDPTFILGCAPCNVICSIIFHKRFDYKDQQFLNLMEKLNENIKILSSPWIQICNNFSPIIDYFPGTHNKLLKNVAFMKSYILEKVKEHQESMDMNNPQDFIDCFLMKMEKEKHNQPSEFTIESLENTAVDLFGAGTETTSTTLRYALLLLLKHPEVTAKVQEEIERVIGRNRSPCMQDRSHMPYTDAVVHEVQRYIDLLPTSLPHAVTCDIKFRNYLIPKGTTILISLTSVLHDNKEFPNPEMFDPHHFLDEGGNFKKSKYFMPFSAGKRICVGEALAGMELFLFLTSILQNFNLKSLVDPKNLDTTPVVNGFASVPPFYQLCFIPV
Test: Inhibition of CYP2C9 in human liver microsomes using fluorogenic substrate preincubated for 15 min followed by NADPH addition measured after 2 hrs by fluorescence based assay
Format: ADME, Microsome
quantity.name: pIC50
# pIC50 is unitless: minus log10 of the molar concentration; print number only

Query: Which pIC50 value is on record for "CC(C)(O)c1ccc(-c2cccc(N(CC34CCC(c5noc(C(C)(C)F)n5)(CC3)CC4)C(=O)[C@H]3C[C@](O)(C(F)(F)F)C3)c2)cc1" ?
Reply: 5.10

---

Experiment: Volume of distribution at steady state in C57BL6 mouse at 1 mg/kg, iv
Assay type: ADME, organism-based
Conditions: in vivo, read-out: Vdss
quantity.name: Vd (L/kg)
Respond with the bare value in L/kg.

Query: Which Vd value is on record for "CC(C)(O)c1ccc(-c2cccc(N(CC34CCC(c5noc(C(C)(C)F)n5)(CC3)CC4)C(=O)[C@H]3C[C@](O)(C(F)(F)F)C3)c2)cc1" ?
Reply: 2.2
